Entry source: patent US20240226228A1

Tested on: red blood cells
protocol_notes: Hemolysis assay
Assay type: cell-based, Sprague-Dawley mouse
Where a SMILES comes first, the peptide text is derived from it. [ ]: non-standard residue; d: D form. Gly(N(CH2)2(3-indolyl)) = O=C(O)CNCCc1c[nH]c2ccccc12; Nspe = C[C@H](NCC(=O)O)c1ccccc1; Nphe = O=C(O)CNCc1ccccc1; Nlys = NCCCCNCC(=O)O
recorded_metric: Hmax (100 μM) (%)

C[C@@H](c1ccccc1)N(CC(N)=O)C(=O)CN(C(=O)CN(CCCCN)C(=O)CN(C(=O)CN(C(=O)CN(CCCCN)C(=O)CN(C(=O)CN(C(=O)CN(CCCCN)C(=O)CN(CCc1c[nH]c2ccccc12)C(=O)CN(CCc1c[nH]c2ccccc12)C(=O)CNCCCCN)[C@@H](C)c1ccccc1)[C@@H](C)c1ccccc1)[C@@H](C)c1ccccc1)[C@@H](C)c1ccccc1)[C@@H](C)c1ccccc1 [Peptoid 14-2]: 100.7
C[C@@H](c1ccccc1)N(CC(N)=O)C(=O)CN(C(=O)CN(CCCCN)C(=O)CN(CCc1c[nH]c2ccccc12)C(=O)CN(C(=O)CN(CCCCN)C(=O)CN(C(=O)CN(C(=O)CN(CCCCN)C(=O)CN(C(=O)CN(C(=O)CNCCCCN)[C@@H](C)c1ccccc1)[C@@H](C)c1ccccc1)[C@@H](C)c1ccccc1)[C@@H](C)c1ccccc1)[C@@H](C)c1ccccc1)[C@@H](C)c1ccccc1 [Peptoid 8]: 105.1
C[C@@H](c1ccccc1)N(CC(N)=O)C(=O)CN(CCCCN)C(=O)CN(C(=O)CN(C(=O)CN(CCCCN)C(=O)CN(C(=O)CN(C(=O)CN(CCCCN)C(=O)CN(C(=O)CN(CCCCN)C(=O)CNCCCCN)[C@@H](C)c1ccccc1)[C@@H](C)c1ccccc1)[C@@H](C)c1ccccc1)[C@@H](C)c1ccccc1)[C@@H](C)c1ccccc1 [Peptoid 49]: 0.3
C[C@@H](c1ccccc1)N(CC(N)=O)C(=O)CN(C(=O)CN(CCCCN)C(=O)CN(C(=O)CN(CCCCN)C(=O)CN(CCCCN)C(=O)CN(CCc1c[nH]c2ccccc12)C(=O)CN(C(=O)CN(CCCCN)C(=O)CN(C(=O)CN(C(=O)CNCCCCN)[C@@H](C)c1ccccc1)[C@@H](C)c1ccccc1)[C@@H](C)c1ccccc1)[C@@H](C)c1ccccc1)[C@@H](C)c1ccccc1 [Peptoid 25]: 2.7
C[C@@H](c1ccccc1)N(CC(N)=O)C(=O)CN(CCCCN)C(=O)CN(CCCCN)C(=O)CN(C(=O)CN(C(=O)CN(CCCCN)C(=O)CN(C(=O)CN(C(=O)CN(CCCCN)C(=O)CN(CCc1c[nH]c2ccccc12)C(=O)CN(CCc1c[nH]c2ccccc12)C(=O)CNCCCCN)[C@@H](C)c1ccccc1)[C@@H](C)c1ccccc1)[C@@H](C)c1ccccc1)[C@@H](C)c1ccccc1 [Peptoid 32-2]: 13.8
C[C@@H](c1ccccc1)N(CC(=O)N(CCCCN)CC(=O)N(CC(=O)N(CC(=O)N(CCCCN)CC(=O)N(CCCCN)CC(=O)N(CC(=O)N(CCCCN)CC(=O)N(CCc1c[nH]c2ccccc12)CC(=O)N(CCc1c[nH]c2ccccc12)CC(N)=O)Cc1ccccc1)[C@@H](C)c1ccccc1)[C@@H](C)c1ccccc1)C(=O)CN(C(=O)CNCCCCN)[C@@H](C)c1ccccc1 [Peptoid 39] (H-[Nlys][Nspe][Nspe][Nlys][Nspe][Nspe][Nlys][Nlys][Nphe][Nlys][Gly(N(CH2)2(3-indolyl))][Gly(N(CH2)2(3-indolyl))]-NH2): 10.2
C[C@@H](c1ccccc1)N(CC(N)=O)C(=O)CN(C(=O)CN(CCCCN)C(=O)CN(C(=O)CN(C(=O)CN(CCCCN)C(=O)CN(C(=O)CN(C(=O)CN(CCCCN)C(=O)CN(CCc1c[nH]c2ccccc12)C(=O)CN(C(=O)CNCCCCN)[C@@H](C)c1ccccc1)[C@@H](C)c1ccccc1)[C@@H](C)c1ccccc1)[C@@H](C)c1ccccc1)[C@@H](C)c1ccccc1)[C@@H](C)c1ccccc1 [Peptoid 10-1]: 81.5
C[C@@H](c1ccccc1)N(CC(=O)N(CCCCN)CC(=O)N(CC(=O)N(CC(=O)N(CCCCN)CC(=O)N(CC(=O)N(CC(=O)N(CCCCN)CC(=O)N(CCc1c[nH]c2ccccc12)CC(=O)N(CCc1c[nH]c2ccccc12)CC(N)=O)[C@@H](C)c1ccccc1)[C@@H](C)c1ccccc1)[C@@H](C)c1ccccc1)[C@@H](C)c1ccccc1)C(=O)CN(C(=O)CNCCCCN)[C@@H](C)c1ccccc1 [Peptoid 11-2] (H-[Nlys][Nspe][Nspe][Nlys][Nspe][Nspe][Nlys][Nspe][Nspe][Nlys][Gly(N(CH2)2(3-indolyl))][Gly(N(CH2)2(3-indolyl))]-NH2): 110.4
C[C@@H](c1ccccc1)N(CC(N)=O)C(=O)CN(CCCCN)C(=O)CN(CCCCN)C(=O)CN(C(=O)CN(C(=O)CN(CCCCN)C(=O)CN(C(=O)CN(C(=O)CN(CCCCN)C(=O)CN(Cc1ccccc1)C(=O)CN(Cc1ccccc1)C(=O)CNCCCCN)[C@@H](C)c1ccccc1)[C@@H](C)c1ccccc1)[C@@H](C)c1ccccc1)[C@@H](C)c1ccccc1 [Peptoid 47]: 4.8
C[C@@H](c1ccccc1)N(CC(N)=O)C(=O)CN(CCCCN)C(=O)CN(CCCCN)C(=O)CN(C(=O)CN(C(=O)CN(CCCCN)C(=O)CN(C(=O)CN(C(=O)CN(CCCCN)C(=O)CN(CCc1c[nH]c2ccccc12)C(=O)CN(CCc1c[nH]c2ccccc12)C(=O)CNCCCCN)[C@@H](C)c1ccccc1)[C@@H](C)c1ccccc1)[C@@H](C)c1ccccc1)[C@@H](C)c1ccccc1 [Peptoid 32-1]: 8.7
